Biological target: Motilin receptor (Oryctolagus cuniculus, UniProt A5A4K8)
Sequence (A5A4K8 whole entry): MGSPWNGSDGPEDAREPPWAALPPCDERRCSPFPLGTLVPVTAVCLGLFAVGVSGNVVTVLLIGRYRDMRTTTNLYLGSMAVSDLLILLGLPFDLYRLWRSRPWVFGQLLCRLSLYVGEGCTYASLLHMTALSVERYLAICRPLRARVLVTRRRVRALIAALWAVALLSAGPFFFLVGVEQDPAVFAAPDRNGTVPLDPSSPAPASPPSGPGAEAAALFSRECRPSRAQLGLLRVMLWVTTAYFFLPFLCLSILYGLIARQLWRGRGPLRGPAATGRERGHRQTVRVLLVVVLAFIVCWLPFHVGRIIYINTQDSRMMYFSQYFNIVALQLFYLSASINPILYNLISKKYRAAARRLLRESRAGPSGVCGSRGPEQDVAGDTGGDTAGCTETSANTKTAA
Experiment: Concentration required for in vitro acid stability with hydrochloric acid solution (pH 2.5 ) at room temperature for 2 hr by assaying the solution for motilin receptor binding
Consider the following compounds and their measured log10 IC50 readings.
Note: values are log10 of IC50 expressed in µM.

# example entries with known answers
Item: CCC1OC(=O)C(C)C(O[C@H]2C[C@@](C)(OC)[C@@H](O)C(C)O2)C(C)[C@@H](OC2OC(C)CC(N(C)C)[C@H]2O)[C@]2(C)CC(C)C3(O[C@]1(C)[C@H](O)[C@H]3C)O2 (some centres not stated) | log10 IC50: -0.77

get_value(item= CC[C@H]1OC(=O)[C@H](C)[C@@H](O[C@H]2C[C@@](C)(OC)[C@@H](O)[C@H](C)O2)[C@H](C)[C@@H](O[C@@H]2O[C@H](C)C[C@H](N(C)C)[C@H]2O)[C@@]2(C)CC(C)=C(O2)[C@H](C)[C@@H](O)[C@]1(C)O , readout=log10 IC50) returns -0.65

Recorded result, CCC1OC(=O)C(C)C(O[C@H]2C[C@@](C)(OC)[C@@H](O)C(C)O2)C(C)[C@@H](OC2OC(C)CC(N(C)CC)[C@H]2O)[C@]2(C)CC(C)=C(O2)[C@H](C)C(=O)[C@]1(C)OC (some centres not stated) , log10 IC50: -2.19

Continuing:
The compound listed as CCC1OC(=O)C(C)C(O[C@H]2C[C@@](C)(OC)[C@@H](O)C(C)O2)C(C)[C@@H](OC2OC(C)CC(N(C)CC)[C@H]2O)[C@]2(C)CC(C)=C(O2)[C@H](C)[C@@H](O)[C@]1(C)O (some centres not stated) has a reported log10 IC50 of -0.52

Kindly note the recorded log10 IC50 for CCC1OC(=O)C(C)C(O[C@H]2C[C@@](C)(OC)[C@@H](O)C(C)O2)C(C)[C@@H](OC2OC(C)CC(N(C)C(C)C)[C@H]2O)[C@]2(C)CC(C)=C(O2)[C@H](C)C(=O)[C@]1(C)OC (some centres not stated) , which is -2.10

Summary for this compound, CCC1OC(=O)C(C)C(O[C@H]2C[C@@](C)(OC)[C@@H](O)C(C)O2)C(C)[C@@H](OC2OC(C)CC(N(C)C)[C@H]2O)[C@@](C)(O)C[C@@H](C)C(=O)[C@H](C)[C@@H](O)[C@]1(C)O (some centres not stated) : log10 IC50 is -1.15

Form: compound = CCC1OC(=O)C(C)C(O[C@H]2C[C@@](C)(OC)[C@@H](O)C(C)O2)C(C)[C@@H](OC2OC(C)CC(N(C)C)[C@H]2O)[C@]2(C)CC(C)=C(O2)[C@H](C)C(=O)[C@]1(C)OC (some centres not stated) ; log10 IC50 = -2.05

* * *

Test system: Canis familiaris
Assay: Tested for in vivo smooth muscle contractile activity, expressed as MI100 (dose to give 100 of motor index after iv administration)
Format: functional, Canis lupus familiaris, Muscle tissue
One threshold, 3 µg/kg, splits the recorded MI100 values: lower ones are TRUE, equal or higher ones are FALSE.

Worked examples, 6 compounds total:
Lab note: confirm whether the reported MI100 for this compound is below 3 µg/kg, equality not counting. compound: CCC1OC(=O)C(C)C(O[C@H]2C[C@@](C)(OC)[C@@H](O)C(C)O2)C(C)[C@@H](OC2OC(C)CC(N(C)C(C)C)[C@H]2O)[C@]2(C)CC(C)=C(O2)[C@H](C)C(=O)[C@]1(C)OC (some centres not stated)
TRUE

Strictly below 3 µg/kg: is that where MI100 of CCC1OC(=O)C(C)C(O[C@H]2C[C@@](C)(OC)[C@@H](O)C(C)O2)C(C)[C@@H](OC2OC(C)CC(N(C)C)[C@H]2O)[C@]2(C)CC(C)=C(O2)[C@H](C)C(=O)[C@]1(C)OC (some centres not stated) sits?
TRUE

Given CCC1OC(=O)C(C)C(O[C@H]2C[C@@](C)(OC)[C@@H](O)C(C)O2)C(C)[C@@H](OC2OC(C)CC(N(C)C)[C@H]2O)[C@@](C)(O)C[C@@H](C)C(=O)[C@H](C)[C@@H](O)[C@]1(C)O (some centres not stated) , is recorded MI100 strictly lower than 3 µg/kg?
FALSE

Is MI100 strictly under 3 µg/kg for the entry CCC1OC(=O)C(C)C(O[C@H]2C[C@@](C)(OC)[C@@H](O)C(C)O2)C(C)[C@@H](OC2OC(C)CC(N(C)CC)[C@H]2O)[C@]2(C)CC(C)=C(O2)[C@H](C)[C@@H](O)[C@]1(C)O (some centres not stated) ?
TRUE

hey, is MI100 for CCC1OC(=O)C(C)C(O[C@H]2C[C@@](C)(OC)[C@@H](O)C(C)O2)C(C)[C@@H](OC2OC(C)CC(N(C)C)[C@H]2O)[C@]2(C)CC(C)C3(O[C@]1(C)[C@H](O)[C@H]3C)O2 (some centres not stated) lower than 3 µg/kg or not?
FALSE

Lab note: confirm whether the reported MI100 for this compound is below 3 µg/kg, equality not counting. compound: CCC1OC(=O)C(C)C(O[C@H]2C[C@@](C)(OC)[C@@H](O)C(C)O2)C(C)[C@@H](OC2OC(C)CC(N(C)CC)[C@H]2O)[C@]2(C)CC(C)=C(O2)[C@H](C)C(=O)[C@]1(C)OC (some centres not stated)
TRUE

***
# check: MI100 < 3 µg/kg for CC[C@H]1OC(=O)[C@H](C)[C@@H](O[C@H]2C[C@@](C)(OC)[C@@H](O)[C@H](C)O2)[C@H](C)[C@@H](O[C@@H]2O[C@H](C)C[C@H](N(C)C)[C@H]2O)[C@@]2(C)CC(C)=C(O2)[C@H](C)[C@@H](O)[C@]1(C)O
TRUE
